biological target: Gal3S(b1-4)[Fuc(a1-3)]GlcNAc; test: glycan array binding signal (z-score within array); higher = stronger binding; conditions: glycan notation: IUPAC condensed, linker removed
About 410 targets per protein were measured; listed, in parts, are those with the strongest signals and a random draw of the rest.
experimental-readout: glycan array binding signal (z-score)

Examples from the recorded data:
Query :: Tell me the measured glycan array binding signal (z-score) of Epf (Streptococcus pyogenes) (protein) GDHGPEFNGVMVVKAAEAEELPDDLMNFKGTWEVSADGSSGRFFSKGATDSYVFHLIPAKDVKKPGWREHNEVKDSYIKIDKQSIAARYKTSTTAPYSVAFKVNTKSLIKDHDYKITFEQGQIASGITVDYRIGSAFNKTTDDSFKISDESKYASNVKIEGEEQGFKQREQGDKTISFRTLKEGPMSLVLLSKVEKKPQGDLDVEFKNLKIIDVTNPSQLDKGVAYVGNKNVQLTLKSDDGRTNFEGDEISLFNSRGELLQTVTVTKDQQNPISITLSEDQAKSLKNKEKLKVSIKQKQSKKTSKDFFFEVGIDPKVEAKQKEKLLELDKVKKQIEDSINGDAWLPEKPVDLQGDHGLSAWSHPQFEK , please.
Result :: 1

Query :: What about RBMC1 (Vibrio cholerae) (protein) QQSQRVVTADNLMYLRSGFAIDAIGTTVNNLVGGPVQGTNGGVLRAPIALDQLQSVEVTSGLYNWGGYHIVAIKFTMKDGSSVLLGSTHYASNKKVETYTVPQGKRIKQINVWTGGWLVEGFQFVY ?
Result :: -0.188

Query :: Continue with Clone730PsrP (Streptococcus pneumoniae) (protein) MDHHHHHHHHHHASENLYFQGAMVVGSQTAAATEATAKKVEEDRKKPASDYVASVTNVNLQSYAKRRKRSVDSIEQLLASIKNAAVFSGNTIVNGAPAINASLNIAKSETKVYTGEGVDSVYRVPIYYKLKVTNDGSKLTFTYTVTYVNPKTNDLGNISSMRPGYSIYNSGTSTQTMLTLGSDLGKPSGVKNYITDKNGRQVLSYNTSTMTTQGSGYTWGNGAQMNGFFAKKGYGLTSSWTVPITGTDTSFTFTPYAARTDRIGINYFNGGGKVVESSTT
Result :: 0.82

// next entry
Query :: Could you tell me which glycan array binding signal (z-score) is on file for SAOUHSC 02783 (Staphylococcus aureus), Q5HD69 (protein) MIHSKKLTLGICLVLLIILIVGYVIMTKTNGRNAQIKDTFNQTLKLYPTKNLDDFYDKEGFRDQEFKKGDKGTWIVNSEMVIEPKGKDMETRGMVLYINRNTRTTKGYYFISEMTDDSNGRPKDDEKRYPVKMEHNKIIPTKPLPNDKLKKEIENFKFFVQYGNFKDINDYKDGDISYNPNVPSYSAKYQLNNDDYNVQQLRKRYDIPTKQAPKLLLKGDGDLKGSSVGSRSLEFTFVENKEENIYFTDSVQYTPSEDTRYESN ?
Result :: -0.324
